Measured values drawn from patent US20230057987A1 for this set.

target: T1, CT45 (CT45A1, A2, A3, A5 to A10); CT45-IP peptide on HLA-A*02:01 (human); assay: luciferase release, 24 h, 1:1; CD8+ T cells with TCR mRNA, T2 cells with titrated peptide; full-length, on cells
T1 peptide: KIFEMLEGV
# EC50 of peptide annotations
Numeric only. Scale: nM

[
  {
    "Binder": "TCR-14 (TCR, V domains shown) Valpha: QKITQTQPGMFVQEKEAVTLDCTYDTSDQSYGLFWYKQPSSGEMIFLIYQGSYDEQNATEGRYSLNFQKARKSANLVISASQLGDSAMYFCAINGLPGSARQLTFGSGTQLTVLP Vbeta: GVAQSPRYKIIEKRQSVAFWCNPISGHATLYWYQQILGQGPKLLIQFQNNGVVDDSQLPKDRFSAERLKGVDSTLKIQPAKLEDSAVYLCASSRFVATGTSPLHFGNGTRLTVT",
    "Units text": "nM",
    "EC50 of peptide": 17.7
  }
]

Prompt: Fill in: EC50 of peptide of TCR-8 (TCR, V domains shown) Valpha: QKVTQAQTEISVVEKEDVTLDCVYETRDTTYYLFWYKQPPSGELVFLIRRNSFDEQNEISGRYSWNFQKSTSSFNFTITASQVVDSAVYFCALSGRGSGTYKYIFGTGTRLKVLA Vbeta: GVIQSPRHLIKEKRETATLKCYPIPRHDTVYWYQQGPGQDPQFLISFYEKMQSDKGSIPDRFSAQQFSDYHSELNMSSLELGDSALYFCASSAGTSYNEQFFGPGTRLTVL is ___
Completion: 6.52

Prompt: Fill in: EC50 of peptide of TCR-10 (TCR, V domains shown) Valpha: QNIDQPTEMTATEGAIVQINCTYQTSGFNGLFWYQQHAGEAPTFLSYNVLDGLEEKGRFSSFLSRSKGYSYLLLKELQMKDSASYLCAVPAPYTGTASKLTFGTGTRLQVTL Vbeta: GVTQTPKFQVLKTGQSMTLQCAQDMNHNSMYWYRQDPGMGLRLIYYSASEGTTDKGEVPNGYNVSRLNKREFSLRLESAAPSQTSVYFCASSEGYSTYNEQFFGPGTRLTVL is ___
Completion: 8.75

Prompt: Fill in: EC50 of peptide of TCR-11 (TCR, V domains shown) Valpha: IQVEQSPPDLILQEGANSTLRCNFSDSVNNLQWFHQNPWGQLINLFYIPSGTKQNGRLSATTVATERYSLLYISSSQTTDSGVYFCAVNTGTASKLTFGTGTRLQVTL Vbeta: GVTQTPKFQVLKTGQSMTLQCAQDMNHNSMYWYRQDPGMGLRLIYYSASEGTTDKGEVPNGYNVSRLNKREFSLRLESAAPSQTSVYFCASSPRGQGRSYEQYFGPGTRLTVT is ___
Completion: 59.5

Prompt: Fill in: EC50 of peptide of TCR-3 (TCR, V domains shown) Valpha: QKITQTQPGMFVQEKEAVTLDCTYDTSDQSYGLFWYKQPSSGEMIFLIYQGSYDEQNATEGRYSLNFQKARKSANLVISASQLGDSAMYFCGYSNYQLIWGAGTKLIIKP Vbeta: QVTQNPRYLITVTGKKLTVTCSQNMNHEYMSWYRQDPGLGLRQIYYSMNVEVTDKGDVPEGYKVSRKEKRNFPLILESPSPNQTSLYFCASREGTGGYQPQHFGDGTRLSIL is ___
Completion: 1.02
